- Target or system: T1, orthogonal hCD122 receptor (hoRb), hCD122 with H133D and Y134F (human, UniProt P14784 27-550)
- T1 sequence: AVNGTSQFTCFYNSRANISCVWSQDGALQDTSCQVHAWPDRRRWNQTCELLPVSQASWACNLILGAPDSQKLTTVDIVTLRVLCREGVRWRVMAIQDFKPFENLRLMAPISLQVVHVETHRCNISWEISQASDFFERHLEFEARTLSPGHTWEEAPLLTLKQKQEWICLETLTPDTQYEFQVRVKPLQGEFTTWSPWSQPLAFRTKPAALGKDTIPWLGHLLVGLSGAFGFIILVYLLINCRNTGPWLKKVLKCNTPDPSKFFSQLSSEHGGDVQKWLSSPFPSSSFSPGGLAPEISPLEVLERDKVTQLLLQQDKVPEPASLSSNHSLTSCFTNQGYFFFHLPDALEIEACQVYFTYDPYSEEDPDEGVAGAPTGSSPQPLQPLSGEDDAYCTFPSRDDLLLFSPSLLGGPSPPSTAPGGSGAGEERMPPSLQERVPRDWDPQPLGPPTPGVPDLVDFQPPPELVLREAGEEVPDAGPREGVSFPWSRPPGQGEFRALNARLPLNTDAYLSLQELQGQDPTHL
- Run description: cell-based or functional assay
Assay endpoint: 3F8 Ortho Proliferation Signal 1:2 (cts/min)

- Binder: "KQVLKA (ligand) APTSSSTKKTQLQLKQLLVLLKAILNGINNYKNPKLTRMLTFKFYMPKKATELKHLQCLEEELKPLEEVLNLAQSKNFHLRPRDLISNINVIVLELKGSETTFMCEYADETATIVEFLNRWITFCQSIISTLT"
  Assay endpoint: "3F8 Ortho Proliferation Signal 1:2"
  Reading unit: "cts/min"
  Readout value: 35200
- Binder: "L18Y, SQVLKA (ligand) APTSSSTKKTQLQLSQLYVLLKAILNGINNYKNPKLTRMLTFKFYMPKKATELKHLQCLEEELKPLEEVLNLAQSKNFHLRPRDLISNINVIVLELKGSETTFMCEYADETATIVEFLNRWITFCQSIISTLT"
  Assay endpoint: "3F8 Ortho Proliferation Signal 1:2"
  Reading unit: "cts/min"
  Readout value: 47600

[I] SQVLRA (ligand) APTSSSTKKTQLQLSQLLVLLRAILNGINNYKNPKLTRMLTFKFYMPKKATELKHLQCLEEELKPLEEVLNLAQSKNFHLRPRDLISNINVIVLELKGSETTFMCEYADETATIVEFLNRWITFCQSIISTLT
[II] ΔM23, SQVLK- (ligand) APTSSSTKKTQLQLSQLLVLLKILNGINNYKNPKLTRMLTFKFYMPKKATELKHLQCLEEELKPLEEVLNLAQSKNFHLRPRDLISNINVIVLELKGSETTFMCEYADETATIVEFLNRWITFCQSIISTLT
Which item exceeds the other in 3F8 Ortho Proliferation Signal 1:2, I or II ? Could you answer with the label of the item you picked?
I
(I: 33400 cts/min, II: 6220 cts/min)
